# Protocol Text: yeast display, Sf9 membrane polyspecificity reagent, FACS + sequencing; frameworks hold sequencing errors
Endpoint: polyreactivity (PSR sort gate)

[
  {
    "Sequence Record": "QVQLVESGGGLDQAGGSLRLICAASGFIFEYYAMGWYRQAPGKERELVASITSGGTTYYADSVKGRFTISRDNAKNTVYLQMNSLKPEDTAVDYCAAAWRIWWYHRGEFDYWGQGTQVTVSS",
    "Obs Value": "high polyreactivity"
  },
  {
    "Sequence Record": "QVQLVDSGGGLVQAGGSLRLSCAASGLNFVINAMGWYRQAPGKERELDATISSGVSTNYADSVKGRFTISRDNAKNTVYLQMNSLKPEDTAVYDCNKGQTVSRGYRLYERYDYWGQGTQVTVSS",
    "Obs Value": "low polyreactivity"
  },
  {
    "Sequence Record": "QVQLVESGGGLVQAGGSLRLSCAASGIIFTYNAMGWSRQAPGKERELVAAINSSGGSTNYADSVKGRFTISRDNAKNTVYLQMNSLKPEDTAVYYCAARDATYYGVWRYYGIDDYWGQGTQVTVSS",
    "Obs Value": "low polyreactivity"
  },
  {
    "Sequence Record": "QVQLVESGGGLVQAGGSLRLSCAASGFIFYRYAMGWYRQAPGKERELVAVISGSGGRTYYADSVKGRFTISRDNAKNTVYLQMNSLKPEDTAVYYCAAVTRRRYYGHIYGYWGQGTQVTVSS",
    "Obs Value": "high polyreactivity"
  },
  {
    "Sequence Record": "QVQLVESGGGLVQAGGSLRLSCAASGRIFGGYEMGWYRQAPGKERELVAAITSDSSTTYADSVKGRFTISRDNAKNTVYLQMNSLKPEDTAVYYCAVQVNGPVFYRPYRDYDYWGQGTQVTVSS",
    "Obs Value": "low polyreactivity"
  }
]

Fill in the blank: the reported polyreactivity (PSR sort gate) of `QVQLVESGRGLVQAGGRLRLSCAASGSTFDGYAMGLYRQAPGKERELVAAITVSVGSTYYADSVKGRFTISRDNAKNTVYLQMNSLKPEDTAVYYCAADYDYQYRYYYWGQGTKVTVSS` is ____. low polyreactivity

Repeat with `QVQLVESGGGLVHAGGSLLLSCAASGRTFRTYTMGLYRQAPGKERELVAVITWTGGSTYYADSVKGRFTISRDNAKNTVYIQMNSLKPEDTAVYYCAARIITFSNVYNGYEYWGQGTQVTVSS` high polyreactivity

Repeat with `QVQLVESGGGLVQAGGSLRLSCAASGLTMTWNSMGWYRQAPGKERELVAAIRWRGSSTYYADSVKGRFTISRDNAKNTVYLQLNSLKPEDTAVYYCAAEPRYYHVGYEYDNWGQGTQVTVSS` high polyreactivity

Repeat with `QVQLVESGGGLVQAGGSLRLSCAASGFIFHRYAMGWYRQAPGKERELVAAITGRGSSTYYADSVKGRFTISRDNAKNTVYLQMNSLKPEDTAVYYCNAYRYQVYDTGWFGYWGQGTQVTVSS` high polyreactivity

Repeat with `QVQLVETGGGLVQAGGSLRLSCAASGSTFVSNAMGWYSQAPGKERELVAAISYIGGGTYYADSEKGRFTISRDNAKNTVYLQMNSLKPEDTAVYYCAAGTPYDLDDYCGQGTQVTVSS` low polyreactivity
